Molecular target: human HER2 (23-652) (Homo sapiens, UniProt P04626)
Assay: Surface plasmon resonance (SPR) for assessment of peptide affinity, human HER2
Assay type: binding
Parameters: towards human HER2 (23-652) and mouse HER2 (23-653); made in house
Settings: SPR, human HER2 extracellular domain, 25° C., 1:1 binding model; read-out: huHER2-SPR-ONC KD
Counter-ions that a name gives are not always drawn. Positions of bridges follow the written chain, without caps; N, C: chain ends. Non-standard residues stand in square brackets, D forms with d. Residues, ends and D or L forms follow the SMILES beside them. Trp(5-OH) = N[C@@H](Cc1c[nH]c2ccc(O)cc12)C(=O)O; NMePhe(4-F) = CN[C@@H](Cc1ccc(F)cc1)C(=O)O; NMehPhe = CN[C@@H](CCc1ccccc1)C(=O)O; Gly(cPr) = N[C@H](C(=O)O)C1CC1; NMeC = CN[C@@H](CS)C(=O)O; NMeS = CN[C@@H](CO)C(=O)O; hCys = N[C@@H](CCS)C(=O)O
measure-name: pKd
To interpret pKd, take it as minus log10 of a concentration measured in moles per litre.

Recorded pKd (compound CN1C(=O)[C@H](CO)NC(=O)[C@H](Cc2ccc(O)cc2)NC(=O)[C@@H](N)CCSSC[C@@H](C(=O)N(C)[C@@H](Cc2ccc(F)cc2)C(N)=O)N(C)C(=O)[C@H](C2CC2)NC(=O)[C@H](Cc2c[nH]c3ccccc23)NC(=O)[C@H](Cc2c[nH]c3ccc(O)cc23)NC(=O)[C@H](CO)N(C)C(=O)[C@@H]1CCc1ccccc1 [Example A57, TFA salt] (H-[hCys]YS[NMehPhe][NMeS][Trp(5-OH)]W[Gly(cPr)][NMeC][NMePhe(4-F)]-NH2; disulfide 1-9) ): 5.70

====

Provide the reported IC50 of each item.
Target: mouse HER2 (23-653) (Mus musculus)
Assay: TR-FRET competition assay for peptide potency, mouse HER2
Format: binding
Set-up: mouse HER2 (23-653) using a Cy5 labeled peptide as a probe; made in house; host or cells: mammalian cells
Settings: TR-FRET competition with Cy5 labeled peptide probe, 0.1 nM mouse HER2, 24 h incubation; read-out: moHER2 TR-FRET IC50
Where a name gives a salt, the structure may show the parent alone. Starred links: 1 amine or outer side, 2 acyl side, 3 side chain; linkers in the order of their positions; H or OH if unused. Positions of bridges follow the written chain, without caps; N, C: chain ends. Non-standard residues stand in square brackets, D forms with d. Residues, ends and D or L forms follow the SMILES beside them. Trp(5-OH) = N[C@@H](Cc1c[nH]c2ccc(O)cc12)C(=O)O; NMePhe(4-F) = CN[C@@H](Cc1ccc(F)cc1)C(=O)O; NMehPhe = CN[C@@H](CCc1ccccc1)C(=O)O; Gly(cPr) = N[C@H](C(=O)O)C1CC1; NMeC = CN[C@@H](CS)C(=O)O; NMeS = CN[C@@H](CO)C(=O)O; Dap = NC[C@H](N)C(=O)O; X5 = O=C(C[*:2])[*:1]
The answer is to be given in nM; state only the numeric part.

Recorded IC50 (compound CN1C(=O)[C@H](CO)NC(=O)[C@H](Cc2ccc(O)cc2)NC(=O)[C@@H](N)CNC(=O)CSC[C@@H](C(=O)N(C)[C@@H](Cc2ccc(F)cc2)C(N)=O)N(C)C(=O)[C@H](C2CC2)NC(=O)[C@H](Cc2c[nH]c3ccccc23)NC(=O)[C@H](Cc2c[nH]c3ccc(O)cc23)NC(=O)[C@H](CO)N(C)C(=O)[C@@H]1CCc1ccccc1 [Example A53, TFA salt] (H-[Dap]YS[NMehPhe][NMeS][Trp(5-OH)]W[Gly(cPr)][NMeC][NMePhe(4-F)]-NH2; linker 1-9 via X5) ): 466

Recorded IC50 (compound CC(=O)N[C@H]1CCCC(=O)NC[C@@H](C(=O)N(C)[C@@H](Cc2ccc(F)cc2)C(=O)N2CCC[C@H]2C(N)=O)N(C)C(=O)[C@H](C2CC2)NC(=O)[C@H](Cc2c[nH]c3ccccc23)NC(=O)[C@H](Cc2c[nH]c3ccc(O)cc23)NC(=O)[C@H](CO)N(C)C(=O)[C@H](CCc2ccccc2)N(C)C(=O)[C@H](CO)NC(=O)[C@H](Cc2ccc(O)cc2)NC1=O [Example A26] ): 13

Recorded IC50 (compound COCCOCCOCCOCCOCCOCCOCCOCCOCCOCCOCCOCCC(=O)N[C@H]1CCCC(=O)NC[C@@H](C(=O)N(C)[C@@H](Cc2ccc(F)cc2)C(=O)N[C@@H](CCCCNC(=O)CN2CCN(CC(=O)O)CCN(CC(=O)O)CC2)C(N)=O)N(C)C(=O)[C@H](C2CC2)NC(=O)[C@H](Cc2c[nH]c3ccccc23)NC(=O)[C@H](Cc2c[nH]c3ccc(O)cc23)NC(=O)[C@H](CCCCNC(C)=O)N(C)C(=O)[C@H](CCc2ccccc2)N(C)C(=O)[C@H](CO)NC(=O)[C@H](Cc2ccc(O)cc2)NC1=O [Example B11] ): 0.2
